What kd was measured for each of the following?
biological target: T1, htau40 (Homo sapiens, UniProt P10636); experiment: Biacore X100 SPR kinetics of anti-tau mAbs on immobilised htau40; type: binding; settings: Table 27; mAb format, immobilised htau40
T1 construct: Full length tau (hT40)
T1 sequence (P10636 1-441 isoform P10636-8): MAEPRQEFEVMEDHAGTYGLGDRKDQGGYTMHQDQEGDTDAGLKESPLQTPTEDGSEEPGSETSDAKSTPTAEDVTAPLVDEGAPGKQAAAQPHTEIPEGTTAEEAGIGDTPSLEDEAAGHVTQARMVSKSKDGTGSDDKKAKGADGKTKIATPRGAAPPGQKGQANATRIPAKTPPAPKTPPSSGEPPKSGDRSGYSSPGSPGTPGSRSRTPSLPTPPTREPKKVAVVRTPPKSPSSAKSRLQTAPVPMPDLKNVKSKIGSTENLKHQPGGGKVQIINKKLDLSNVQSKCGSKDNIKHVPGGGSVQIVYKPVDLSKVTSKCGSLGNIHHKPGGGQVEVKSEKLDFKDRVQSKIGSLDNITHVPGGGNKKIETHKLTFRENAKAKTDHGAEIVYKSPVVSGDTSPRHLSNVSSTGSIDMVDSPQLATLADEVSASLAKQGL
Please respond with the number in s⁻¹ and leave the unit unwritten.

Exam item: Name the recorded kd for CE2: anti-tau core clone, Table 10; SEQ ID NO: 366 (protein, CE2/E1B8 amino acid sequence) scFv: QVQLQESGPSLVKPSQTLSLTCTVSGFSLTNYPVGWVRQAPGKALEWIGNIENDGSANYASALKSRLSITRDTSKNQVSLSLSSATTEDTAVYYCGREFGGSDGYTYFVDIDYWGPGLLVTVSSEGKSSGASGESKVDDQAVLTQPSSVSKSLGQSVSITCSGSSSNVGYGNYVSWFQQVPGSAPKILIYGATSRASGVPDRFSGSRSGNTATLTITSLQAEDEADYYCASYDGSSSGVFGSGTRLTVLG .
Marked response: 0.005218

Exam item: Try this molecule next: CE3: anti-tau core clone, Table 10; SEQ ID NO: 367 (protein, CE3 amino acid sequence) scFv: QVRLQESGPSLVKPSQTLSVTCTVSGFSLISNAVGWVRQAPGKVPESLAGCSSDGKCYYNSALKSRLDITRDTSKNQISLSLSSVTTDDAAVYYCTRGYYPVYGYDYLGTIDYWGPGLLVTVSSEGKSSGASGESKVDDQAVLTQPSSVSGSLGQRVSITCSGSSSNVGRNDVAWFQQLPGSGLRTIIYGTTSRPSGIPDRFSGSKSGVTATLTIDSLQAEDEADYFCASGDSSAINDIFGSGTRLTVLG
Marked response: 0.001718

Exam item: Try this molecule next: NS2A1: anti-tau clone, Table 11; SEQ ID NO: 220 (protein, NS2A1 amino acid sequence) scFv: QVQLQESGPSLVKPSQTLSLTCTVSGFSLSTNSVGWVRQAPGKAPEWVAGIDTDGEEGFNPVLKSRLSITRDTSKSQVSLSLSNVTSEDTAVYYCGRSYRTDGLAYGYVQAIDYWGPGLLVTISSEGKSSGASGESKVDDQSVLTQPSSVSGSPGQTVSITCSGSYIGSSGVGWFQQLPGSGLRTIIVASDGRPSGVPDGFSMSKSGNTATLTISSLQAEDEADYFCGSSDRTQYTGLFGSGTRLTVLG
Marked response: 0.002621

Exam item: Try this molecule next: CC7: human-specific anti-tau clone, Table 10; SEQ ID NO: 365 (protein, CC7 amino acid sequence) scFv: QVQLQESGPSLVKPSQTLSLTCTVSGFSLTSNAVIWVRQAPGKAPEWVALIDVDGDAAYDPALKSRLSITRDTSKSQVSLSLRSVTTEDTAVYYCARDYGSWGYVSDIDYWGPGLLVTVSSEGKSSGASGESKVDDRVVRTQPSSVSGSLGQRVSITCSGSYITGSSVGWFQQVPGSGLKTVIYDNNDRPSGVPDRFSGSKSGDTATLTISSLQAEDEADYYCASYDTSNIGLFGSGTRLTVLG
Marked response: 0.03164
